- System: PSN1 cells (pancreas adenocarcinoma)
- experiment.summary: cells
- run.conditions: read-out: LC50; PSN1; 50% net cell killing; 72 hours; SRB
Can you tell me CC50 for the items I'm about to list?
Numbers only, in nM.

Study these solved cases before continuing.
- compound: "COc1c(C)cc2c(c1O)[C@@H]1[C@@H]3[C@@H]4SC[C@]5(N[C@H](COC(C)=O)Cc6c5[nH]c5ccccc65)C(=O)OC[C@@H](c5c6c(c(C)c(OC(C)=O)c54)OCO6)N3[C@@H](C#N)[C@H](C2)N1C [Compound 3a-S]"
  CC50 [nM]: 12
- compound: "COc1c(C)cc2c(c1O)[C@@H]1[C@@H]3[C@@H]4SC[C@]5(N[C@@H](C)Cc6c5[nH]c5ccccc65)C(=O)OC[C@@H](c5c6c(c(C)c(OC(C)=O)c54)OCO6)N3[C@@H](O)[C@H](C2)N1C [Compound D]"
  CC50 [nM]: 24.7

The record that follows has no CC50 shown yet.
// query Provide the reported CC50 (system: PSN1 cells (pancreas adenocarcinoma)) for COc1ccc2[nH]c3c(c2c1)C[C@@H](C(=O)O)N[C@]31CS[C@@H]2c3c(OC(C)=O)c(C)c4c(c3[C@H](COC1=O)N1[C@@H]2[C@H]2c3c(cc(C)c(OC)c3O)C[C@@H]([C@@H]1C#N)N2C)OCO4 [Compound 28-S, reference compound]
// result 692

###

Can you tell me CC50 for the items I'm about to list?
- System: A549 cells (lung carcinoma, NSCLC)
- experiment.summary: cells
- run.conditions: read-out: LC50; A549; 50% net cell killing; 72 hours; SRB

Study these solved cases before continuing.
- molecule: "COc1ccc2[nH]c3c(c2c1)C[C@@H](C(=O)O)N[C@]31CS[C@@H]2c3c(OC(C)=O)c(C)c4c(c3[C@H](COC1=O)N1[C@@H]2[C@H]2c3c(cc(C)c(OC)c3O)C[C@@H]([C@@H]1C#N)N2C)OCO4 [Compound 28-S, reference compound]"
  target.or.system: "A549 cells (lung carcinoma, NSCLC)"
  CC50: "> 1190 nM"
- molecule: "COc1ccc2[nH]c3c(c2c1)C[C@@H](CN)N[C@]31CS[C@@H]2c3c(OC(C)=O)c(C)c4c(c3[C@H](COC1=O)N1[C@@H]2[C@H]2c3c(cc(C)c(OC)c3O)C[C@@H]([C@@H]1C#N)N2C)OCO4"
  target.or.system: "A549 cells (lung carcinoma, NSCLC)"
  CC50: "> 122 nM"
- molecule: "COc1c(C)cc2c(c1O)[C@@H]1[C@@H]3[C@@H]4SC[C@]5(N[C@H](COC(C)=O)Cc6c5[nH]c5ccccc65)C(=O)OC[C@@H](c5c6c(c(C)c(OC(C)=O)c54)OCO6)N3[C@@H](C#N)[C@H](C2)N1C"
  target.or.system: "A549 cells (lung carcinoma, NSCLC)"
  CC50: "> 120 nM"
- molecule: "COc1c(C)cc2c(c1O)[C@@H]1[C@@H]3[C@@H]4SC[C@]5(NCCc6c5oc5ccccc65)C(=O)OC[C@@H](c5c6c(c(C)c(OC(C)=O)c54)OCO6)N3[C@@H](C#N)[C@H](C2)N1C"
  target.or.system: "A549 cells (lung carcinoma, NSCLC)"
  CC50: "23.5 nM"
- molecule: "COc1ccc2[nH]c3c(c2c1)C[C@H](C(=O)O)N[C@]31CS[C@@H]2c3c(OC(C)=O)c(C)c4c(c3[C@H](COC1=O)N1[C@@H]2[C@H]2c3c(cc(C)c(OC)c3O)C[C@@H]([C@@H]1C#N)N2C)OCO4 [Compound 28-R, reference compound]"
  target.or.system: "A549 cells (lung carcinoma, NSCLC)"
  CC50: "> 1190 nM"

List CC50 for every entry below, keeping the order given.
1. COc1c(C)cc2c(c1O)[C@@H]1[C@@H]3[C@@H]4SC[C@]5(N[C@H](C)Cc6c5[nH]c5ccccc65)C(=O)OC[C@@H](c5c6c(c(C)c(OC(C)=O)c54)OCO6)N3[C@@H](O)[C@H](C2)N1C
2. COc1ccc2[nH]c3c(c2c1)C[C@H](CN)N[C@]31CS[C@@H]2c3c(OC(C)=O)c(C)c4c(c3[C@H](COC1=O)N1[C@@H]2[C@H]2c3c(cc(C)c(OC)c3O)C[C@@H]([C@@H]1C#N)N2C)OCO4
3. COc1c(C)cc2c(c1O)[C@@H]1[C@@H]3[C@@H]4SC[C@]5(N[C@@H](C)Cc6c5[nH]c5ccccc65)C(=O)OC[C@@H](c5c6c(c(C)c(OC(C)=O)c54)OCO6)N3[C@@H](O)[C@H](C2)N1C

// result
["> 130 nM", "> 122 nM", "> 130 nM"]

###

- System: HT29 cells (colorectal adenocarcinoma)
- experiment.summary: cells
- run.conditions: read-out: LC50; HT29; 50% net cell killing; 72 hours; SRB
measurement.label: CC50

List CC50 for every entry below, keeping the order given.
1. COc1c(C)cc2c(c1O)[C@@H]1[C@@H]3[C@@H]4SC[C@]5(N[C@H](CO)Cc6c5oc5ccccc65)C(=O)OC[C@@H](c5c6c(c(C)c(OC(C)=O)c54)OCO6)N3[C@@H](C#N)[C@H](C2)N1C
2. COc1ccc2[nH]c3c(c2c1)C[C@@H](CN)N[C@]31CS[C@@H]2c3c(OC(C)=O)c(C)c4c(c3[C@H](COC1=O)N1[C@@H]2[C@H]2c3c(cc(C)c(OC)c3O)C[C@@H]([C@@H]1C#N)N2C)OCO4
3. COc1c(C)cc2c(c1O)[C@@H]1[C@@H]3[C@@H]4SC[C@]5(N[C@@H](C)Cc6c5[nH]c5ccccc65)C(=O)OC[C@@H](c5c6c(c(C)c(OC(C)=O)c54)OCO6)N3[C@@H](C#N)[C@H](C2)N1C [B, reference compound]
4. C=CCOC(=O)NC[C@@H]1Cc2c([nH]c3ccc(OC)cc23)[C@@]2(CS[C@@H]3c4c(OC(C)=O)c(C)c5c(c4[C@H](COC2=O)N2[C@@H]3[C@H]3c4c(cc(C)c(OC)c4O)C[C@@H]([C@@H]2C#N)N3C)OCO5)N1
5. COc1c(C)cc2c(c1O)[C@@H]1[C@@H]3[C@@H]4SC[C@]5(N[C@H](C(=O)O)Cc6c5[nH]c5ccccc65)C(=O)OC[C@@H](c5c6c(c(C)c(OC(C)=O)c54)OCO6)N3[C@@H](C#N)[C@H](C2)N1C [Compound 14-S, reference compound]
6. COc1ccc2[nH]c3c(c2c1)C[C@H](CN)N[C@]31CS[C@@H]2c3c(OC(C)=O)c(C)c4c(c3[C@H](COC1=O)N1[C@@H]2[C@H]2c3c(cc(C)c(OC)c3O)C[C@@H]([C@@H]1C#N)N2C)OCO4
7. COc1ccc2[nH]c3c(c2c1)C[C@H](C(=O)O)N[C@]31CS[C@@H]2c3c(OC(C)=O)c(C)c4c(c3[C@H](COC1=O)N1[C@@H]2[C@H]2c3c(cc(C)c(OC)c3O)C[C@@H]([C@@H]1C#N)N2C)OCO4 [Compound 28-R, reference compound]
8. C=CCOC(=O)NC[C@H]1Cc2c([nH]c3ccccc23)[C@@]2(CS[C@@H]3c4c(OC(C)=O)c(C)c5c(c4[C@H](COC2=O)N2[C@@H]3[C@H]3c4c(cc(C)c(OC)c4O)C[C@@H]([C@@H]2C#N)N3C)OCO5)N1

// result
1. > 126 nM
2. > 122 nM
3. > 129 nM
4. > 110 nM
5. > 124 nM
6. > 122 nM
7. > 1190 nM
8. > 114 nM

###

- System: A549 cells (lung carcinoma, NSCLC)
- experiment.summary: cells
- run.conditions: read-out: LC50; A549; 50% net cell killing; 72 hours; SRB
measurement.label: CC50

- molecule: "COc1c(C)cc2c(c1O)[C@@H]1[C@@H]3[C@@H]4SC[C@]5(N[C@@H](CO)Cc6c5[nH]c5ccccc65)C(=O)OC[C@@H](c5c6c(c(C)c(OC(C)=O)c54)OCO6)N3[C@@H](C#N)[C@H](C2)N1C"
  measurement.label: "CC50"
  result: "> 126 nM"
- molecule: "COc1c(C)cc2c(c1O)[C@@H]1[C@@H]3[C@@H]4SC[C@]5(N[C@H](C)Cc6c5[nH]c5ccccc65)C(=O)OC[C@@H](c5c6c(c(C)c(OC(C)=O)c54)OCO6)N3[C@@H](C#N)[C@H](C2)N1C [A, reference compound]"
  measurement.label: "CC50"
  result: "> 129 nM"

List CC50 for every entry below, keeping the order given.
1. C=CCOC(=O)NC[C@@H]1Cc2c([nH]c3ccc(OC)cc23)[C@@]2(CS[C@@H]3c4c(OC(C)=O)c(C)c5c(c4[C@H](COC2=O)N2[C@@H]3[C@H]3c4c(cc(C)c(OC)c4O)C[C@@H]([C@@H]2C#N)N3C)OCO5)N1
2. COc1c(C)cc2c(c1O)[C@@H]1[C@@H]3[C@@H]4SC[C@]5(N[C@@H](CO)Cc6c5oc5ccccc65)C(=O)OC[C@@H](c5c6c(c(C)c(OC(C)=O)c54)OCO6)N3[C@@H](C#N)[C@H](C2)N1C
3. COc1c(C)cc2c(c1O)[C@@H]1[C@@H]3[C@@H]4SC[C@]5(N[C@H](CN)Cc6c5[nH]c5ccccc65)C(=O)OC[C@@H](c5c6c(c(C)c(OC(C)=O)c54)OCO6)N3[C@@H](C#N)[C@H](C2)N1C
4. COc1c(C)cc2c(c1O)[C@@H]1[C@@H]3[C@@H]4SC[C@]5(N[C@H](C(=O)O)Cc6c5[nH]c5ccccc65)C(=O)OC[C@@H](c5c6c(c(C)c(OC(C)=O)c54)OCO6)N3[C@@H](C#N)[C@H](C2)N1C [Compound 14-S, reference compound]
5. COc1c(C)cc2c(c1O)[C@@H]1[C@@H]3[C@@H]4SC[C@]5(N[C@@H](CN)Cc6c5[nH]c5ccccc65)C(=O)OC[C@@H](c5c6c(c(C)c(OC(C)=O)c54)OCO6)N3[C@@H](C#N)[C@H](C2)N1C
6. COc1ccc2oc3c(c2c1)CCN[C@]31CS[C@@H]2c3c(OC(C)=O)c(C)c4c(c3[C@H](COC1=O)N1[C@@H]2[C@H]2c3c(cc(C)c(OC)c3O)C[C@@H]([C@@H]1C#N)N2C)OCO4

// result
> 110 nM
> 126 nM
> 126 nM
> 124 nM
> 126 nM
> 126 nM

Data credit: patent US12384800B2
